- Test system: Serine/threonine-protein kinase B-raf (Homo sapiens), P15056 [V600E]
- Sequence (P15056 whole entry V600E): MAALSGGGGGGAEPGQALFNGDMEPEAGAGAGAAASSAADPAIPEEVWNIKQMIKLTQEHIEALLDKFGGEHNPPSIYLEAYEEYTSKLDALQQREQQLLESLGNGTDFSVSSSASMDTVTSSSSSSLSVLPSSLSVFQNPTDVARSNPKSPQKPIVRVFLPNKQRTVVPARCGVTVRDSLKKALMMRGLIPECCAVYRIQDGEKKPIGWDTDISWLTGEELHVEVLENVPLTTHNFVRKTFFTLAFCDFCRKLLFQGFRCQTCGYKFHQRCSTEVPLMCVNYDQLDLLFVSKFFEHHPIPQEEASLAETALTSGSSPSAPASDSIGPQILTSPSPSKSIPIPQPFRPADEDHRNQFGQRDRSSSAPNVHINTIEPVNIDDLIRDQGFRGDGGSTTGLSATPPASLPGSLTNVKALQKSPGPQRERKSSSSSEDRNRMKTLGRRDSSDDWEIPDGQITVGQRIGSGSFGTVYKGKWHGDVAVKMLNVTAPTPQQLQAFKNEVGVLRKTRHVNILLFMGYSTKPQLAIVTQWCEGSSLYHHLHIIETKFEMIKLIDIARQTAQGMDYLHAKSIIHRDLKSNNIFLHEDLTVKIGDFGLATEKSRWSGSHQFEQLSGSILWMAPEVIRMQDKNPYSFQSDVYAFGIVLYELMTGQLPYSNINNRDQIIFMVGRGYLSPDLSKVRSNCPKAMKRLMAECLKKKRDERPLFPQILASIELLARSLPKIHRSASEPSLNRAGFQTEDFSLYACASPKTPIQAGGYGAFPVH
- experiment: Inhibition of BRAF V600E mutant (unknown origin) assessed as inhibition of MEK phosphorylation at 2 uM by ELISA relative to control
parameter-measured: inhibition

Reference set, count: 4
chemical-string: CCOC(=O)c1sc(NC(=O)c2ccc(Cl)c([N+](=O)[O-])c2)c(C#N)c1C
inhibition: 51%
//
chemical-string: CCOC(=O)c1sc(NC(=O)c2cccc(OC)c2)c(C#N)c1C
inhibition: 13%
//
chemical-string: CCOC(=O)c1sc(NC(=O)c2ccc(Cl)c(C(F)(F)F)c2)c(C#N)c1C
inhibition: 60%
//
chemical-string: CCOC(=O)c1sc(NC(=O)c2ccc(C(=O)OC)cc2)c(C#N)c1C
inhibition: 54%

// switching to the query compound
inhibition reported for this compound CCOC(=O)c1sc(NC(=O)c2ccccc2F)c(C#N)c1C : 51%

----------
- Tested on: Serine/threonine-protein kinase B-raf (Homo sapiens), P15056 [V600E]
- experiment: Inhibition of BRAF V600E mutant (unknown origin) assessed as inhibition of MEK phosphorylation at 2 uM by ELISA relative to control
Active and inactive are the calls of the source. No cut-off for these calls is given here.
parameter-measured: inhibition

chemical-string: CCOC(=O)c1sc(NC(=O)c2cc(OC)cc(OC)c2)c(C#N)c1C
system: Serine/threonine-protein kinase B-raf (Homo sapiens), P15056 [V600E]
inhibition: 85%

chemical-string: COC(=O)c1sc(NC(=O)c2cccc(C)c2)c(C#N)c1C
system: Serine/threonine-protein kinase B-raf (Homo sapiens), P15056 [V600E]
inhibition: inactive

chemical-string: CCOC(=O)c1sc(NC(=O)c2cccc(C)c2)c(C#N)c1C
system: Serine/threonine-protein kinase B-raf (Homo sapiens), P15056 [V600E]
inhibition: 50%

chemical-string: CCOC(=O)c1sc(NC(=O)c2ccccc2I)c(C(=O)OC)c1C
system: Serine/threonine-protein kinase B-raf (Homo sapiens), P15056 [V600E]
inhibition: inactive

chemical-string: CCOC(=O)c1sc(NC(=O)c2ccc(C(C)(C)C)cc2)c(C#N)c1C
system: Serine/threonine-protein kinase B-raf (Homo sapiens), P15056 [V600E]
inhibition: 46%

Provide the reported inhibition of each entry below, same order.
1. CCOC(=O)c1sc(NC(=O)c2ccccc2C)c(C#N)c1C
2. CCOC(=O)c1sc(NC(=O)c2ccc(C)c(OC)c2)c(C#N)c1C
3. CCOC(=O)c1sc(NC(=O)c2ccc(F)cc2)c(C(=O)Nc2ccccc2)c1C

Result ::
52%
inactive
87%

The compound Cc1c(C(=O)OC(C)C)sc(NC(=O)c2ccc(F)cc2)c1C#N , tested on Serine/threonine-protein kinase B-raf (Homo sapiens), P15056 [V600E], showed inhibition of inactive

----------
- Tested on: Serine/threonine-protein kinase B-raf (Homo sapiens), P15056 [V600E]
- experiment: Inhibition of BRAF V600E mutant (unknown origin) assessed as inhibition of MEK phosphorylation at 2 uM by ELISA relative to control
Calls of active or inactive are those of the source. No cut-off for these calls is given here.

chemical-string: CCOC(=O)c1sc(NC(=O)c2ccco2)c(C#N)c1C
inhibition: inactive
//
chemical-string: CCOC(=O)c1sc(NC(=O)c2cccc([N+](=O)[O-])c2)c(C#N)c1C
inhibition: 36%
//
chemical-string: COC(=O)c1sc(NC(=O)c2ccccc2OC)c(C#N)c1C
inhibition: inactive
//
chemical-string: CCOC(=O)c1sc(NC(=O)c2ccc(C)cc2)c(C#N)c1C
inhibition: 48%
